system: HT144; test: MTT cell proliferation assay; format: cell-based, human; settings: HT144, 3 days; read-out: Cytotoxic effect (MTT) IC50
property: pIC50
Please note pIC50 is a logarithmic value: minus log10 of concentration in mol/L. Answer with that number alone.

Q: Given CS(=O)(=O)[O-].Cc1c2cc[n+](CCN3CCCCC3)cc2c(C)c2c1[nH]c1ccc(O)cc12 [BA016FZ539] , state its recorded pIC50.
Ans: 5.05

----------
system: SKMEL28; assay: MTT cell proliferation assay; type: cell-based, human; conditions: SKMEL28, 3 days; read-out: Cytotoxic effect (MTT) IC50
property: pIC50
By convention, pIC50 is the negative base-10 log of a molar concentration.

Q: Lab note: need pIC50 with SKMEL28 for entry CS(=O)(=O)[O-].Cc1c2cc[n+](CCN3CCCCC3)cc2c(C)c2c1[nH]c1ccc(O)cc12 [BA016FZ539] , please look it up.
Ans: 4.97
